Assay: inhibition of 3D7 malaria parasite growth – strain 3D7 (AID 2306);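 also: 0% = DMSO wells and 100% = chloroquine plus artemisinin control wells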
Conditions: P. falciparum 3D7 erythrocytic growth, LDH absorbance, 72 h; at 2 µM; hits give high values
MEASURED METRIC: growth inhibition (%)
Entry rule: numbers only, all in %.

Param item = Cc1[nH]c(C)c(-c2ccc(-c3cc(C(F)(F)F)cc(C(F)(F)F)c3)nc2)c(=O)c1Br ; retrieve measured growth inhibition.
98

Param item = Cc1cc(NC(=O)Nc2ccc(C#N)cc2)c2ccccc2n1 ; retrieve measured growth inhibition.
100

Param item = CN(C)CCCNCCS(=O)(=O)c1cccc(Nc2ccc(-c3cccc(N(C)C)c3)cn2)c1 ; retrieve measured growth inhibition.
98

Param item = CN(C)CCn1cc(C(=O)c2cc(Cl)ccc2O)cc1-c1nc2ccccc2c(=O)[nH]1 ; retrieve measured growth inhibition.
99

Param item = Cc1cc(N)c2cc(NC(=O)CCC(=O)Nc3ccc4nc(C)cc(N)c4c3)ccc2n1 ; retrieve measured growth inhibition.
85

---

Task for the reader: assign each of the following molecules its reported inhibition.
Target: L-lactate dehydrogenase (Plasmodium falciparum (isolate CDC / Honduras)) (UniProt Q27743)
Sequence (Q27743 whole entry, looked up): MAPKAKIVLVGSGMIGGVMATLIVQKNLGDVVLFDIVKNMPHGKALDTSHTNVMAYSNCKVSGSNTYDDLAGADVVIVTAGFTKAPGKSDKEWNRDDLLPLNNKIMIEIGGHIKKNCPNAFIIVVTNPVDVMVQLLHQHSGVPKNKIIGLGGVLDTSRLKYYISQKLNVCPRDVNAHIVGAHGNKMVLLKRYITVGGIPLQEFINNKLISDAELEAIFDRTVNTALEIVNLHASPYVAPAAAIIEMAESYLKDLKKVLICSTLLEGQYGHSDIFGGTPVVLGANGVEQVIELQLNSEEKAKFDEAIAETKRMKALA
Assay: PfLDH activity inhibition – cell lysate, 3D7 strain, counter-screen for P. falciparum growth inhibition project (AID 2304);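 also: 0% = vehicle and 100% = reference inhibitor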
Conditions: P. falciparum 3D7 crude extract, LDH APAD/NBT absorbance; at 2 µM; hits give high values
Entry rule: numbers only, all in %.

Tell me reported inhibition for O=C1CC(C(=O)O)CC(=O)N1 , tested with L-lactate dehydrogenase (Plasmodium falciparum (isolate CDC / Honduras)) (UniProt Q27743).
6

Tell me reported inhibition for CC(=O)NCCNCc1cccc(C(=O)NCc2cccc(C(F)(F)F)c2)c1 , tested with L-lactate dehydrogenase (Plasmodium falciparum (isolate CDC / Honduras)) (UniProt Q27743).
1

Tell me reported inhibition for COc1cc([N+](=O)[O-])ccc1NC(=O)c1cc(Cl)ccc1O , tested with L-lactate dehydrogenase (Plasmodium falciparum (isolate CDC / Honduras)) (UniProt Q27743).
6

Tell me reported inhibition for Cc1ccccc1C1CCN(C2CCC(NC(=O)/C=C/c3ccc(C(F)(F)F)cc3F)CC2)CC1 (stereo not given) , tested with L-lactate dehydrogenase (Plasmodium falciparum (isolate CDC / Honduras)) (UniProt Q27743).
-2

Tell me reported inhibition for COc1ccc(S(=O)(=O)Nc2cc(C)cc(Br)c2OC)cc1N1CCN(C(=O)C(Cl)(Cl)Cl)CC1 , tested with L-lactate dehydrogenase (Plasmodium falciparum (isolate CDC / Honduras)) (UniProt Q27743).
0

---

Molecular target: L-lactate dehydrogenase (Plasmodium falciparum (isolate CDC / Honduras))
Assay: PfLDH activity inhibition – cell lysate, 3D7 strain, counter-screen for P. falciparum growth inhibition project (AID 2304);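 also: 0% = vehicle and 100% = reference inhibitor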
Conditions: P. falciparum 3D7 crude extract, LDH APAD/NBT absorbance; at 2 µM; hits give high values
The source made the active and inactive calls. The rule behind the calls is not given here.
MEASURED METRIC: inhibition

Param item = COCCn1c(-c2nc(-c3ccc(F)cc3)cnc2N)nc2ccccc21 ; retrieve measured inhibition.
-6% (inactive)

Param item = CCCOc1cc(OCCC)cc(-c2ccc(C(=O)Nc3ccc4ccc(C)nc4c3)c(=O)[nH]2)c1 ; retrieve measured inhibition.
5% (inactive)

Param item = Cc1c(NCCCNCc2cc(Cl)cc(Cl)c2Cl)[nH]c2ccccc2c1=O ; retrieve measured inhibition.
-2% (inactive)

Param item = CC(Nc1cc(-c2ccccn2)nc(-c2ccccn2)n1)c1ccccc1 (centres undefined) ; retrieve measured inhibition.
-3% (inactive)

Param item = COc1cc2nc(NC3CCN(Cc4ccccc4)CC3)nc(N)c2cc1OC ; retrieve measured inhibition.
-2% (inactive)

Param item = Cc1ccc(OC2CCN(CCCCC3(C)C(=O)Nc4ccccc43)CC2)cc1 (centres undefined) ; retrieve measured inhibition.
-3% (inactive)

Param item = Fc1ccc2nc(-c3ccc(-c4cccc(CN5CCCCC5)c4)cc3)[nH]c2c1 ; retrieve measured inhibition.
-6% (inactive)

Param item = S=C(NCCN1CCOCC1)Nc1ccccc1 ; retrieve measured inhibition.
1% (inactive)

Param item = NC(=NCc1ccc(O)cc1)Nc1nc(-c2ccc(OCCCn3ccnc3)cc2)cs1 ; retrieve measured inhibition.
2% (inactive)

Param item = O=C(C=Cc1ccc(Cl)c(Cl)c1)NCCCCCN1CCCC(CCCNS(=O)(=O)c2ccc(Br)cc2)C1 (centres undefined) ; retrieve measured inhibition.
-2% (inactive)

Param item = COc1cc2c(cc1OC)CN(CCc1ccc(NC(=O)c3cc4cc(Cl)ccc4[nH]3)cc1)CC2 ; retrieve measured inhibition.
2% (inactive)

Param item = CCCN(Cc1nnc(-c2ccco2)o1)C(=O)C1CCN(c2ncc(C(F)(F)F)cc2Cl)CC1 ; retrieve measured inhibition.
-6% (inactive)

Param item = CC(C)(C(=O)Nc1ccc(C2CCC(NCC3CC3)CC2)c(Cl)c1)c1cccc(OC(F)F)c1 (centres undefined) ; retrieve measured inhibition.
-4% (inactive)

Param item = O=C(NCCCc1ccccc1)c1csc(C2CCCN(C(=O)c3ccc(O)c(-c4cccc5ccccc45)c3)C2)n1 (centres undefined) ; retrieve measured inhibition.
-1% (inactive)

Param item = CCN(CC)CCN(Cc1ccc(-c2ccc(C(F)(F)F)cc2)cc1)C(=O)Cn1c(CCc2cccc(F)c2F)nc(=O)c2cc(F)c(F)cc21 ; retrieve measured inhibition.
-5% (inactive)

Param item = O=C(COc1ccc(F)cc1)NC1CCN(c2ccnc3cc(Cl)ccc23)C1 (centres undefined) ; retrieve measured inhibition.
-1% (inactive)

Param item = CNc1nc(NN=Cc2cc([N+](=O)[O-])c(Cl)cc2Cl)nc(Nc2cccc(C(F)(F)F)c2)n1 ; retrieve measured inhibition.
9% (inactive)

Param item = Nc1c2ccccc2nc2ccc(Cl)cc12 ; retrieve measured inhibition.
6% (inactive)

Param item = COc1ccc(-c2cccc(NC(=O)c3ccc(C#N)cc3)c2)cc1CN1CCCN(C)CC1 ; retrieve measured inhibition.
-3% (inactive)

Param item = O=C(c1ccc(Cl)cc1)N1CCCC(C(=O)N(Cc2nnc(-c3ccccc3Cl)o2)C2CC2)C1 (centres undefined) ; retrieve measured inhibition.
0% (inactive)

Param item = Cn1cncc1C(=O)Nc1ccc(-c2cccc(-c3nc4ccc(F)cc4[nH]3)c2)cc1 ; retrieve measured inhibition.
2% (inactive)

Param item = Clc1cc(Cl)cc(Nc2ccnc(Nc3cc(Cl)cc(Cl)c3)n2)c1 ; retrieve measured inhibition.
-1% (inactive)

Param item = FC(F)(F)c1cccnc1N1CCC(Nc2nc3ccc(Cl)cc3[nH]2)CC1 ; retrieve measured inhibition.
-2% (inactive)

Param item = C[C@@H](Oc1cc(-n2cnc3ccc(NC(=O)NC(C)(C)C)cc32)sc1C(N)=O)c1ccccc1Cl ; retrieve measured inhibition.
1% (inactive)

Param item = CC(=O)Nc1ccc(C(=O)Nc2cccc(-c3cccc(-c4nc5ccc(C(F)(F)F)cc5[nH]4)c3)c2)cn1 ; retrieve measured inhibition.
-2% (inactive)

Param item = Cc1ccc2cc(NCCCCCCCCON3C(N)=NC(N)=NC34CCCCC4)ccc2n1 ; retrieve measured inhibition.
3% (inactive)

Param item = Cc1nccc2c(NC(=O)N[C@@H]3CCN(c4ncc(C(F)(F)F)cc4Br)C3)cccc12 ; retrieve measured inhibition.
-4% (inactive)

Param item = CCNc1cc(C(=O)N[C@@H](Cc2ccccc2)[C@H](O)CNC2(CC)CC2)cc(N2CCCCS2(=O)=O)c1 ; retrieve measured inhibition.
0% (inactive)

Param item = CC(C)NCc1cccc(-c2cccc(NC(=O)c3cccc(C#N)c3)c2)c1 ; retrieve measured inhibition.
-4% (inactive)

Param item = Cc1cc(N(C)CCCN2CCCCC2)nc(Nc2ccc(Cl)cc2)n1 ; retrieve measured inhibition.
-3% (inactive)

Param item = Cc1cc(N2CCCC2)nc(Nc2ccc(NC(=O)CC(C)C)cc2)n1 ; retrieve measured inhibition.
-1% (inactive)

Param item = CCNc1cc(C)nc(Nc2ccc(NC(=O)c3ccccc3)cc2)n1 ; retrieve measured inhibition.
-1% (inactive)

Param item = CC(C)n1ncc2c3c(N)nc(N)nc3ccc21 ; retrieve measured inhibition.
-3% (inactive)

Param item = N#Cc1ccc(NC(=NCc2ccc(Cl)cc2Cl)Nc2cccc(Cl)c2Cl)c(O)c1 ; retrieve measured inhibition.
-6% (inactive)

Param item = CCOCc1cnc(C)nc1NCC(=O)c1c(C)[nH]c2cc(C)ccc12 ; retrieve measured inhibition.
4% (inactive)

Param item = COc1ccc(NC(=O)Nc2cccc(-c3ccc(-c4nc5c(C)cccc5[nH]4)s3)c2)cc1 ; retrieve measured inhibition.
8% (inactive)

Param item = C=C(C)C1CC=C(CN2CCCC(n3ccc4cc(NC(=O)c5ccco5)ccc43)CC2)CC1 (centres undefined) ; retrieve measured inhibition.
1% (inactive)

Param item = CC(C)c1sc(N2CCN(C)CC2)nc1C(=O)Nc1cccc2c1CCCC2 ; retrieve measured inhibition.
-1% (inactive)

Param item = Oc1ccc(CCNc2nc(NCCOc3cccc4ccccc34)nc(N3CCNCC3)n2)cc1 ; retrieve measured inhibition.
1% (inactive)
